# ASSAYED_SYSTEM: human OX1 receptor (Homo sapiens, UniProt O43613)
# Construct: expressed in transfected cells; host or cells: CHO cells
# ASSAY_PROTOCOL: Measurement of orexin receptor antagonistic activity (calcium fluorescence, FLIPRtetra)
# Assay type: cell-based
# CONDITION_PARAMETERS: CHO, read-out: Human Orexin1 receptor inhibition (at 10 μM)
MEASURED_PROPERTY: inhibition at 10 µM (%)

COMPOUND	ASSAY_VALUE
Cc1cc(C)nc(N2CCN(C(=O)c3cc(C#N)ccc3C)CCO2)n1 [Example 83]	7
Cc1ccc(-n2nccn2)c(C(=O)N2CCN(c3cn4ccccc4n3)OC[C@H]2C)c1 [Example 130]	62
Cc1cc(C)nc(N2CCN(C(=O)c3cc(C)ccc3-n3nccn3)[C@H](C)CO2)c1 [Example 142]	99
COc1c(C#N)cccc1C(=O)N1CCON(c2nc(C)cc(C)n2)CC1 [Example 63]	11

----------
# ASSAYED_SYSTEM: human OX2 receptor (Homo sapiens)
# Construct: expressed in transfected cells; host or cells: CHO cells
# ASSAY_PROTOCOL: Measurement of orexin receptor antagonistic activity (calcium fluorescence, FLIPRtetra)
# Format: cell-based
# CONDITION_PARAMETERS: CHO, 10 μM test compound; CHO cells expressing human OX2 receptor; OX-A 0.3 nM; read-out: Human Orexin2 receptor inhibition (at 10 μM)
Structures can show the parent of a compound that is named as a salt.
The entries below come with measured inhibition at 10 µM values attached.

MOLECULE	ASSAYED_SYSTEM	inhibition at 10 µM (%)
COc1cccc(OC)c1C(=O)N1CCON(c2nc(C)cc(C)n2)CC1	human OX2 receptor (Homo sapiens)	97
Cc1ccc(-n2nccn2)c(C(=O)N2CCN(c3nc(C)cc(C#N)n3)OC[C@H]2C)c1	human OX2 receptor (Homo sapiens)	100
C[C@H]1CN(C(=O)c2ccccc2-n2nccn2)CCN(c2ccc(Cl)cn2)O1	human OX2 receptor (Homo sapiens)	104
C[C@@H]1CON(c2ccnc(C3CC3)n2)C[C@H](C)N1C(=O)c1ccccc1-n1nccn1	human OX2 receptor (Homo sapiens)	98
Cc1ccc(-n2nccn2)c(C(=O)N2CCON(c3cccc(C)n3)CC2)c1	human OX2 receptor (Homo sapiens)	99
Cc1cc(N2CCN(C(=O)c3ccc(Cl)cc3-n3ccnn3)C[C@H](C)O2)nc(C)n1	human OX2 receptor (Homo sapiens)	80
Cc1cc(N2CCN(C(=O)c3cc(F)ccc3-c3ncccn3)CCO2)nc(C)n1	human OX2 receptor (Homo sapiens)	102
Cc1ccc(-n2nccn2)c(C(=O)N2CCN(c3cccc(C)n3)OC[C@H]2C)c1	human OX2 receptor (Homo sapiens)	101
C[C@H]1CN(C(=O)c2cc(Cl)ccc2-n2nccn2)CCN(c2cc(C(F)F)nc(C3CC3)n2)O1	human OX2 receptor (Homo sapiens)	98
CCc1ccc(-n2nccn2)c(C(=O)N2CCN(c3cc(C)nc(C)n3)O[C@@H](C)C2)c1	human OX2 receptor (Homo sapiens)	101
Cc1cc(N2CCN(C(=O)c3cc(F)ccc3-n3nccn3)[C@H](C)CO2)nc(C)n1	human OX2 receptor (Homo sapiens)	100
COc1nc(N2CCN(C(=O)c3cc(C)ccc3-n3nccn3)[C@H](C)CO2)ncc1F [Example 117, hydrochloride]	human OX2 receptor (Homo sapiens)	100
Cc1nc(N2CCN(C(=O)c3cc(Cl)ccc3-c3ncccn3)CCO2)cc(C(F)(F)F)n1	human OX2 receptor (Homo sapiens)	103
Cc1cc(C)nc(N2CCN(C(=O)c3ccc(Cl)cc3)CCO2)n1	human OX2 receptor (Homo sapiens)	4
Cc1cc(C)nc(N2CCN(C(=O)c3cccc(C#N)c3)CCO2)n1	human OX2 receptor (Homo sapiens)	14
Cc1cc(N2C[C@@H](C)N(C(=O)c3ccccc3-c3nccs3)[C@@H](C)CO2)nc(C)n1	human OX2 receptor (Homo sapiens)	66
Cc1ccnc(N2CCN(C(=O)c3cc(C)ccc3-n3nccn3)[C@H](C)CO2)c1	human OX2 receptor (Homo sapiens)	98

----------
The entries below come with measured inhibition at 10 µM values attached.
# ASSAYED_SYSTEM: human OX2 receptor (Homo sapiens, UniProt O43614)
# Construct: expressed in transfected cells; host or cells: CHO cells
# Sequence (O43614 whole entry): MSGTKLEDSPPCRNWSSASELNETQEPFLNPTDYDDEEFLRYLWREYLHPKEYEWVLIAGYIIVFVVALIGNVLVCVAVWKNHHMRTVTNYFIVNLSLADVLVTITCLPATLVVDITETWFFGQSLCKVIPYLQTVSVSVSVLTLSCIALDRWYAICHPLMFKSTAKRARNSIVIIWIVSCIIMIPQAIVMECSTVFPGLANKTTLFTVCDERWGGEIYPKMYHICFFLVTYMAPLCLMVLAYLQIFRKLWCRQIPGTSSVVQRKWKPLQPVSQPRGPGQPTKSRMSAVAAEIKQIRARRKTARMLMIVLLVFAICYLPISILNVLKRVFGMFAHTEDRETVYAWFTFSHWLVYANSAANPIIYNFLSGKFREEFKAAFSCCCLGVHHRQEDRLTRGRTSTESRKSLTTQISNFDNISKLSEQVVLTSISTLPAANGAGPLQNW
# ASSAY_PROTOCOL: Measurement of orexin receptor antagonistic activity (calcium fluorescence, FLIPRtetra)
# Format: cell-based
# CONDITION_PARAMETERS: CHO, 10 μM test compound; CHO cells expressing human OX2 receptor; OX-A 0.3 nM; read-out: Human Orexin2 receptor inhibition (at 10 μM)
Where a name gives a salt, the structure may show the parent alone.

COMPOUND	inhibition at 10 µM, %
Cc1cc(N2CCN(C(=O)c3c(F)cccc3-n3nccn3)CCO2)nc(C)n1 [Example 16, hydrochloride]	98
Cc1cc(N2CCN(C(=O)c3ccccc3-c3nccs3)C[C@H](C)O2)nc(C)n1 [Example 84]	98
Cc1ccc(-n2nccn2)c(C(=O)N2CCN(c3nc4cc(Cl)ccc4o3)OC[C@H]2C)c1 [Example 118]	102
Cc1cc(N2CCN(C(=O)c3ccccc3-c3nccs3)CCO2)nc(C)n1 [Example 29]	100
Cc1ccc(-n2nccn2)c(C(=O)N2CCON(c3cc(C)nc(C)n3)CC2)c1 [Example 4]	96
Cc1nc(N2C[C@H](C)N(C(=O)c3cc(F)ccc3-n3nccn3)[C@H](C)CO2)cc(C(F)(F)F)n1 [Example 181]	83
Cc1cc(N2CCN(C(=O)c3ccccc3-n3nccn3)[C@@H](C)CO2)nc(C)n1 [Example 170]	100
CCOc1ccccc1C(=O)N1CCON(c2nc(C)cc(C)n2)CC1 [Example 61]	94
COC(=O)c1ccccc1C(=O)N1CCN(c2cc(C)nc(C)n2)O[C@@H](C)C1 [Example 233]	87
Cc1ccc(-n2nccn2)c(C(=O)N2CCON(c3ncc(C(F)(F)F)cn3)CC2)c1 [Example 9]	74
C[C@H]1CN(C(=O)c2ccccc2-n2nccn2)CCN(c2cc(C3CC3)nc(C3CC3)n2)O1 [Example 96]	98
Cc1cc(N2CCN(C(=O)c3ccccc3-c3ncccn3)C[C@H](C)O2)nc(C)n1 [Example 109]	101
Cc1cc(N2C[C@H](C)N(C(=O)c3ccccc3-n3nccn3)[C@H](C)CO2)nc(C)n1 [Example 172]	100
Cc1cc(N2CCN(C(=O)c3cc(Cl)ccc3C3CCC3)CCO2)nc(C)n1 [Example 22]	99
Cc1cc(N2CCN(C(=O)c3cc(C(F)(F)F)ccc3-n3nccn3)C[C@H](C)O2)nc(C)n1 [Example 199]	100
Cc1nccc(N2CCN(C(=O)c3cc(Cl)ccc3-c3ncccn3)[C@H](C)CO2)n1 [Example 229]	101
COc1cc(N2CCN(C(=O)c3ccccc3-c3nccs3)CCO2)ccn1 [Example 37]	85

----------
The entries below come with measured inhibition at 10 µM values attached.
# ASSAYED_SYSTEM: human OX1 receptor (Homo sapiens, UniProt O43613)
# Construct: expressed in transfected cells; host or cells: CHO cells
# Sequence (O43613 1-425): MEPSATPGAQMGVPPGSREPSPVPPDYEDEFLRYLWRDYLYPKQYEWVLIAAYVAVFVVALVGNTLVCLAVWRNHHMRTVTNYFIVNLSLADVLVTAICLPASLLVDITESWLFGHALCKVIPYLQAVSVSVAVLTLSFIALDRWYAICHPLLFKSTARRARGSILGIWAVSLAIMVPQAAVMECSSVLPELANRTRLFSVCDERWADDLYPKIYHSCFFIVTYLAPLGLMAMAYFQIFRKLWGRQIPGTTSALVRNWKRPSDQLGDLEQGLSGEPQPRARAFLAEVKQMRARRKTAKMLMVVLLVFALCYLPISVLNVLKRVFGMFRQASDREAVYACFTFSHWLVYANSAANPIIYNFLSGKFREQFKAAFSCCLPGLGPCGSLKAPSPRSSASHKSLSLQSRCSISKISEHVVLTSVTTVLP
# ASSAY_PROTOCOL: Measurement of orexin receptor antagonistic activity (calcium fluorescence, FLIPRtetra)
# Type: cell-based
# CONDITION_PARAMETERS: CHO, 10 μM test compound; CHO cells expressing human OX1 receptor; OX-A 1 nM; read-out: Human Orexin1 receptor inhibition (at 10 μM)
Counter-ions that a name gives are not always drawn.
MEASURED_PROPERTY: inhibition at 10 µM (%)

MOLECULE	ASSAY_VALUE
Cc1cc(N2CCN(C(=O)c3ccccc3-n3nccn3)[C@@H](C)CO2)nc(C)n1	20
Cc1cc(C)nc(N2CCN(C(=O)c3cccc4c3OCC4)CCO2)n1	10
C[C@@H]1CON(c2cccc(CO)n2)CCN1C(=O)c1ccccc1-n1nccn1	18
COc1nc(N2CCN(C(=O)c3cc(C)ccc3-n3nccn3)[C@H](C)CO2)ncc1F [Example 117, hydrochloride]	77

----------
# ASSAYED_SYSTEM: human OX1 receptor (Homo sapiens, UniProt O43613)
# Construct: expressed in transfected cells; host or cells: CHO cells
# ASSAY_PROTOCOL: Measurement of orexin receptor antagonistic activity (calcium fluorescence, FLIPRtetra)
# Assay type: cell-based
# CONDITION_PARAMETERS: CHO, 10 μM test compound; CHO cells expressing human OX1 receptor; OX-A 1 nM; read-out: Human Orexin1 receptor inhibition (at 10 μM)
MEASURED_PROPERTY: inhibition at 10 µM (%)

COMPOUND	ASSAY_VALUE
Cc1ccc(-n2nccn2)c(C(=O)N2[C@H](C)CON(c3cc(C)nc(C(F)(F)F)n3)C[C@@H]2C)c1	102
Cc1nc(N2C[C@H](C)N(C(=O)c3cc(F)ccc3-n3nccn3)[C@H](C)CO2)cc(C(F)(F)F)n1	70
Cc1nc(N2CCN(C(=O)c3cc(F)ccc3-n3nccn3)[C@H](C)CO2)nc(C)c1F	81
COc1cccc(N2CCN(C(=O)c3cc(C)ccc3-n3nccn3)[C@H](C)CO2)c1	83
Cc1nc(N2CCN(C(=O)c3cc(F)ccc3-n3nccn3)C[C@H](C)O2)cc(C(F)(F)F)n1	50
Cc1ccc(-n2nccn2)c(C(=O)N2CCN(c3ncccc3Cl)OC[C@H]2C)c1	11
Cc1cc(N2CCN(C(=O)c3cc(Cl)ccc3-c3ncc(F)cn3)[C@H](C)CO2)nc(C)n1	51
Cc1cc(N2CCN(C(=O)c3ccccc3-c3ncccn3)CCO2)nc(C)n1	41
Cc1ccc(-n2nccn2)c(C(=O)N2CCN(c3nc(C)cnc3C)OC[C@H]2C)c1	38
Cc1ccc(-n2nccn2)c(C(=O)N2CCN(c3nc(C)cc(C)n3)OC[C@H]2C)c1	69
Cc1ccc(-n2nccn2)c(C(=O)N2CCN(c3cccc(C(F)(F)F)n3)OC[C@H]2C)c1	99
Cc1cc(N2CC(C)N(C(=O)c3ccccc3-n3nccn3)C[C@H](C)O2)nc(C)n1 (stereo partly shown)	37
Cc1cc(N2CCN(C(=O)c3cc(F)ccc3-n3nccn3)[C@H](C)CO2)nc(C)n1	42
CC[C@@H]1CON(c2cc(C)nc(C)n2)CCN1C(=O)c1ccccc1-n1nccn1	95
Cc1ccc(-n2nccn2)c(C(=O)N2CCON(c3cc(C)nc(C)n3)CC2)c1	62
Cc1ccc(-n2nccn2)c(C(=O)N2CCN(c3cc(C)nc(C)n3)OC[C@H]2C)c1	88

Cited source: patent US10131653B2
